target: D(2) dopamine receptor (Rattus norvegicus, UniProt P61169)
Sequence (P61169 whole entry): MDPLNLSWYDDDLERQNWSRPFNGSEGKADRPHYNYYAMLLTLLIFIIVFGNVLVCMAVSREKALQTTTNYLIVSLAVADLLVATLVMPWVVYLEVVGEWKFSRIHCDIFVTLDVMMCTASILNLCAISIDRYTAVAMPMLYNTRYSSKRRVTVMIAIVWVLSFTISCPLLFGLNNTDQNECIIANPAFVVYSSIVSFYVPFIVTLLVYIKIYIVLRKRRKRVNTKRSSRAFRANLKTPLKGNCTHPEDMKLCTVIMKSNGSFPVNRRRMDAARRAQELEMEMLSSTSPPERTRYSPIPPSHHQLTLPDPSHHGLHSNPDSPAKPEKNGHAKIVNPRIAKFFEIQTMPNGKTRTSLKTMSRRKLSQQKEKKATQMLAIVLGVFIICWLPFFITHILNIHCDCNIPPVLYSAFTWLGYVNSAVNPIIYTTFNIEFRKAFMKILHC
assayProcedure: Displacement of [3H]spiperone from dopamine D2 receptors in rat striatal membranes
Binarize IC50 at 300 nM; below is 1, at or above is 0.

Does the reported IC50 of O=C(O)/C=C\C(=O)O.O=C(O)/C=C\C(=O)O.O=C1NCCN1CCCN1CCN(C2CC(c3ccc(F)cc3)c3cc(Cl)ccc32)CC1 (centres undefined) stay below 300 nM?
1

Does the reported IC50 of Cl.Cl.Fc1ccc(C2CC(N3CCN(CCN4CCCNC4=S)CC3)c3ccc(F)cc32)cc1 (racemic) stay below 300 nM?
0

Does the reported IC50 of Cl.Cl.OCCN1CCN(C2CC(c3ccc(F)cc3)c3cc(F)ccc32)CC1 (stereo in doubt; (-)-13) stay below 300 nM?
0

Does the reported IC50 of Cl.Cl.OCCN1CCN(C2CC(c3ccc(F)cc3)c3cc(F)ccc32)CC1 (single isomer, unassigned; (+)) stay below 300 nM?
0

Does the reported IC50 of O=C(O)/C=C\C(=O)O.O=C(O)/C=C\C(=O)O.OCCN1CCN(C2CC(c3ccc(F)cc3)c3cccc(Cl)c32)CC1 (centres undefined) stay below 300 nM?
1

Does the reported IC50 of Cl.Cl.Fc1ccc(C2CC(N3CCN(CCN4CCCNC4=S)CC3)c3ccc(Cl)cc32)cc1 (stereo in doubt; (-)-39) stay below 300 nM?
1

Does the reported IC50 of CC(C)N1CCN(CCN2CCN(C3CC(c4ccc(F)cc4)c4cc(Cl)ccc43)CC2)C1=O.O=C(O)/C=C\C(=O)O.O=C(O)/C=C\C(=O)O (single isomer, unassigned; (-)) stay below 300 nM?
1

Does the reported IC50 of O=C(O)/C=C\C(=O)O.O=C(O)/C=C\C(=O)O.O=C1NCCCN1CCN1CCN(C2CC(c3ccc(F)cc3)c3cc(F)ccc32)CC1 (single isomer, unassigned; (+)) stay below 300 nM?
1

Does the reported IC50 of Cl.Cl.OCCN1CCN(C2CC(c3ccc(F)cc3)c3cc(Cl)ccc32)CC1 (single isomer, unassigned; (-)) stay below 300 nM?
0

Does the reported IC50 of O=C(O)/C=C\C(=O)O.O=C(O)/C=C\C(=O)O.Oc1nc2ccccc2n1CCN1CCN(C2CC(c3ccc(F)cc3)c3cc(Cl)ccc32)CC1 (centres undefined) stay below 300 nM?
1

Does the reported IC50 of O=C(O)/C=C\C(=O)O.O=C(O)/C=C\C(=O)O.O=C1NCCCN1CCN1CCN(C2CC(c3ccc(F)cc3)c3cc(F)ccc32)CC1 (single isomer, unassigned; (-)) stay below 300 nM?
0

Does the reported IC50 of Cl.Cl.Fc1ccc(C2CC(N3CCN(CCN4CCCNC4=S)CC3)c3ccc(Cl)cc32)cc1 (stereo in doubt; (+)-39) stay below 300 nM?
0

Does the reported IC50 of O=C(O)/C=C\C(=O)O.O=C(O)/C=C\C(=O)O.O=C1NCCCN1CCN1CCN(C2CC(c3ccc(F)cc3)c3cc(Cl)ccc32)CC1 (single isomer, unassigned; (-)) stay below 300 nM?
1

Does the reported IC50 of Cl.Cl.O=C1CCCN1CCN1CCN(C2CC(c3ccc(F)cc3)c3cc(Cl)ccc32)CC1 (centres undefined) stay below 300 nM?
0

* * *

target: Serotonin 2 (5-HT2) receptor (Rattus norvegicus, UniProt P30994+P08909+P14842)
assayProcedure: Displacement of [3H]ketanserin from 5-hydroxytryptamine 2 receptor in rat cortical membranes
Type: cell membranes, Membrane
Binarize IC50 at 6 nM; below is 1, at or above is -1.

Does the reported IC50 of Cc1nc2sccn2c(=O)c1CCN1CCN(C2CC(c3ccc(F)cc3)c3cc(Cl)ccc32)CC1.O=C(O)/C=C\C(=O)O.O=C(O)/C=C\C(=O)O (stereo not drawn) stay below 6 nM?
-1

Does the reported IC50 of O=C(O)/C=C\C(=O)O.O=C(O)/C=C\C(=O)O.O=C1NCCCN1CCN1CCN(C2CC(c3ccc(F)cc3)c3cc(F)ccc32)CC1 (single isomer, unassigned; (-)) stay below 6 nM?
-1

Does the reported IC50 of Cl.Cl.Fc1ccc(C2CC(N3CCN(CCN4CCCNC4=S)CC3)c3ccc(F)cc32)cc1 (single isomer, unassigned; (+)) stay below 6 nM?
1

Does the reported IC50 of Cc1ccc2c(c1)C(c1ccc(F)cc1)CC2N1CCN(CCO)CC1.O=C(O)/C=C\C(=O)O.O=C(O)/C=C\C(=O)O (stereo not drawn) stay below 6 nM?
-1

Does the reported IC50 of CN1CCN(CCN2CCN(C3CC(c4ccc(F)cc4)c4cc(Cl)ccc43)CC2)C1=O.O=C(O)/C=C\C(=O)O (stereo not drawn) stay below 6 nM?
1

Does the reported IC50 of Cl.Cl.Fc1ccc(C2CC(N3CCN(CCN4CCCNC4=S)CC3)c3ccc(F)cc32)cc1 (racemic) stay below 6 nM?
-1

Does the reported IC50 of Fc1ccc(C2CC(N3CCN(CCN4CCNC4=S)CC3)c3ccc(Cl)cc32)cc1.O=C(O)/C=C\C(=O)O (stereo not drawn) stay below 6 nM?
1

Does the reported IC50 of Cc1ccc2c(c1)C(c1ccc(F)cc1)CC2N1CCN(CCN2CCN(C(C)C)C2=O)CC1.O=C(O)/C=C\C(=O)O.O=C(O)/C=C\C(=O)O (stereo not drawn) stay below 6 nM?
1

Does the reported IC50 of Fc1ccc(C2CC(N3CCN(CCN4CCN=C4S)CC3)c3ccc(F)cc32)cc1.O=C(O)/C=C\C(=O)O.O=C(O)/C=C\C(=O)O (stereo not drawn) stay below 6 nM?
1

Does the reported IC50 of Cl.Cl.O=C1CCCN1CCN1CCN(C2CC(c3ccc(F)cc3)c3cc(Cl)ccc32)CC1 (stereo not drawn) stay below 6 nM?
-1

Does the reported IC50 of Cl.Cl.OCCN1CCN(C2CC(c3ccc(F)cc3)c3cc(F)ccc32)CC1 (single isomer, unassigned; (+)) stay below 6 nM?
-1

Does the reported IC50 of OCCN1CCN(C2CC(c3ccc(F)cc3)c3cc(F)ccc32)CC1 (stereo not drawn) stay below 6 nM?
-1

Does the reported IC50 of Cl.Cl.OCCN1CCN(C2CC(c3ccc(F)cc3)c3cc(F)ccc32)CC1 (stereo in doubt; (-)-13) stay below 6 nM?
-1

Does the reported IC50 of CC(C)N1CCN(CCN2CCN(C3CC(c4cccc(F)c4)c4cc(Cl)ccc43)CC2)C1=O.O=C(O)/C=C\C(=O)O (stereo not drawn) stay below 6 nM?
-1

Does the reported IC50 of CC(C)N1CCN(CCN2CCN(C3CC(c4ccc(F)cc4)c4cc(Cl)ccc43)CC2)C1=O.O=C(O)/C=C\C(=O)O.O=C(O)/C=C\C(=O)O (stereo in doubt; 20) stay below 6 nM?
1

Does the reported IC50 of CC(C)N1CCN(CCN2CCN(C3CC(c4ccc(F)cc4)c4cc(Br)ccc43)CC2)C1=O.O=C(O)/C=C\C(=O)O.O=C(O)/C=C\C(=O)O (stereo not drawn) stay below 6 nM?
-1

Does the reported IC50 of OCCN1CCN(C2CC(c3ccc(F)cc3)c3c(Cl)cccc32)CC1 (stereo not drawn) stay below 6 nM?
-1

Does the reported IC50 of CC(C)N1CCN(CCN2CCN(C3CC(c4ccc(F)cc4)c4cc(C(F)(F)F)ccc43)CC2)C1=O.O=C(O)/C=C\C(=O)O.O=C(O)/C=C\C(=O)O (stereo not drawn) stay below 6 nM?
1

Does the reported IC50 of O=C(O)/C=C\C(=O)O.O=C(O)/C=C\C(=O)O.Oc1nc2ccccc2n1CCN1CCN(C2CC(c3ccc(F)cc3)c3cc(Cl)ccc32)CC1 (stereo not drawn) stay below 6 nM?
1

Does the reported IC50 of O=C(O)/C=C\C(=O)O.O=C(O)/C=C\C(=O)O.O=C1NCCCN1CCN1CCN(C2CC(c3ccc(F)cc3)c3cc(Cl)ccc32)CC1 (single isomer, unassigned; (-)) stay below 6 nM?
1

Does the reported IC50 of O=C(O)/C=C\C(=O)O.O=C(O)/C=C\C(=O)O.O=C1NCCCN1CCN1CCN(C2CC(c3ccc(F)cc3)c3cc(Cl)ccc32)CC1 (stereo in doubt; (+)-41) stay below 6 nM?
-1

Does the reported IC50 of OCCN1CCN(C2CC(c3ccc(F)cc3)c3ccc(Cl)cc32)CC1 (stereo not drawn) stay below 6 nM?
1

Does the reported IC50 of Cl.Cl.OCCN1CCN(C2CC(c3ccc(F)cc3)c3cc(Cl)ccc32)CC1 (single isomer, unassigned; (-)) stay below 6 nM?
-1

Does the reported IC50 of O=C1NCCN1CCN1CCN(C2CC(c3ccc(F)cc3)c3cc(Cl)ccc32)CC1 (stereo not drawn) stay below 6 nM?
1

Does the reported IC50 of CC(C)N1CCN(CCN2CCN(C3CC(c4ccc(F)cc4)c4cc(Cl)ccc43)CC2)C1=O.O=C(O)/C=C\C(=O)O.O=C(O)/C=C\C(=O)O (single isomer, unassigned; (-)) stay below 6 nM?
1

Does the reported IC50 of CCN1CCN(CCN2CCN(C3CC(c4ccc(F)cc4)c4cc(Cl)ccc43)CC2)C1=O.O=C(O)/C=C\C(=O)O.O=C(O)/C=C\C(=O)O (stereo not drawn) stay below 6 nM?
1

Does the reported IC50 of CC(C)N1CCN(CCN2CCN(C3CC(c4ccc(Cl)cc4)c4cc(Cl)ccc43)CC2)C1=O.O=C(O)/C=C\C(=O)O (stereo not drawn) stay below 6 nM?
-1
